Conditions: 303.15 K; 101 kPa; Liquid; Pycnometric method
Listed compounds paired with reported mass density
Could you give me the number in kg/m3? Just the number is fine.

Would you please look over these solved cases?
compound=CC(C)OC(C)C observed_measurement=712.9
compound=Nc1ccccc1Cl observed_measurement=1202.7
compound=Nc1cccc(Cl)c1 observed_measurement=1205.3

Next up:
Measured mass density, C1CCOC1 [tetrahydrofuran] : 876.9

* * *

Conditions: 323.15 K; 101 kPa; Liquid; Pycnometric method
± gives the expanded uncertainty stated by the source.
experimental readout: mass density
# output: number + unit

Would you please look over these solved cases?
molecule=Nc1ccccc1Cl experimental_readout="mass density" observed_measurement="1183.3 ± 0.4 kg/m3"
molecule=CC(C)OC(C)C experimental_readout="mass density" observed_measurement="691.9 ± 0.3 kg/m3"
molecule=Nc1cccc(Cl)c1 experimental_readout="mass density" observed_measurement="1186.6 ± 0.4 kg/m3"

Next up:
Measured mass density, C1CCOC1 [tetrahydrofuran] : 854.8 ± 0.3 kg/m3

* * *

Listed compounds paired with reported speed of sound
Settings: 303.15 K; 101 kPa; Liquid; Linear variable-path acoustic interferometer
Could you give me the number in m/s? Just the number is fine.

Would you please look over these solved cases?
compound="C1CCOC1 [tetrahydrofuran]" experimental_readout="speed of sound" observed_measurement=1254
compound=CC(C)OC(C)C experimental_readout="speed of sound" observed_measurement=976
compound=Nc1ccccc1Cl experimental_readout="speed of sound" observed_measurement=1470

Next up:
Measured speed of sound, Nc1cccc(Cl)c1 : 1517

* * *

Listed molecules paired with reported speed of sound
Details: 323.15 K; 101 kPa; Liquid; Linear variable-path acoustic interferometer
Could you give me the number in m/s? Just the number is fine.

Would you please look over these solved cases?
molecule=Nc1cccc(Cl)c1 observed_measurement=1452
molecule=Nc1ccccc1Cl observed_measurement=1402
molecule="C1CCOC1 [tetrahydrofuran]" observed_measurement=1165

Next up:
Measured speed of sound, CC(C)OC(C)C : 889
